Where do these numbers come from? They come from patent US9422262B2.

Exercise: state measured pIC50 for each of the compounds provided.
ASSAY SYSTEM: Par1 (thrombin) receptor (Homo sapiens, UniProt P25116)
Construct: endogenous in cells; host or cells: platelets (platelet-rich plasma; washed platelets from individual donors)
Sequence (P25116 22-425): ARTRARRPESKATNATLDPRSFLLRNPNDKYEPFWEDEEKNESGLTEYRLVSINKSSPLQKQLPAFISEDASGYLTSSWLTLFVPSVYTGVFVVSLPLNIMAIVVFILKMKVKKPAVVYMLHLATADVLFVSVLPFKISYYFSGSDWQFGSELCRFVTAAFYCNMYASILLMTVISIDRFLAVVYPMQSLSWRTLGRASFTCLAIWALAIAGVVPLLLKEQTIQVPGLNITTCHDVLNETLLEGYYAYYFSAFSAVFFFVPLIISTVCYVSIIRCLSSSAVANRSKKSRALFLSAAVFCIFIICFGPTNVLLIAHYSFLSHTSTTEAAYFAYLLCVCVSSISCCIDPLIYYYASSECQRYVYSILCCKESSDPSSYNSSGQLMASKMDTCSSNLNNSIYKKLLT
EXPERIMENT DESCRIPTION: SFLLRN-mediated granule secretion, platelet-rich plasma, luciferin-luciferase ATP readout (primary assay)
Format: cell-based
CONDITION CONTEXT: Table D; read-out: Activity (measured IC50 category)
pIC50: −log10 of the molar value.

Give recorded pIC50. "CCCC(=O)Nc1cccc(NC(=O)c2cc(C)ccc2Br)c1"
6.00 to 9.00

Give recorded pIC50. "Cc1ccccc1C(=O)Nc1cccc(NC(=O)CC(C)C)c1"
5.30 to 6.00

Give recorded pIC50. "O=C(Nc1cccc(NC(=O)c2ccccc2Br)c1)c1ccccc1"
< 5.00

Give recorded pIC50. "CCC(C)(C)C(=O)Nc1cccc(NC(=O)c2ccccc2Br)c1"
< 5.00

Give recorded pIC50. "CC(=O)Nc1ccc(NC(=O)c2ccccc2Br)cc1"
< 5.00

Give recorded pIC50. "CCCC(=O)Nc1ccnc(NC(=O)c2ccccc2Br)c1"
< 5.00

Give recorded pIC50. "CCCC(=O)Nc1cccc(NC(=O)c2cccc(Cl)c2Cl)c1"
5.30 to 6.00

Give recorded pIC50. "CCCC(=O)Nc1cccc(NC(=O)c2c(Cl)cccc2Br)c1"
5.30 to 6.00

Give recorded pIC50. "CN(C(=O)c1ccccc1Br)c1cccc(NC(=O)C2CCCC2)c1"
< 5.00

Give recorded pIC50. "CCCC(=O)Nc1cccc(NC(=O)c2ccc(C)cc2)c1"
< 5.00

Give recorded pIC50. "O=C(Nc1ccccc1)c1ccccc1Br"
5.30 to 6.00

Give recorded pIC50. "CCCC(=O)Nc1cccc(NC(=O)c2ccc(OC)cc2)c1"
< 5.00

Give recorded pIC50. "CCCC(=O)Nc1cccc(NC(=O)c2cc(Cl)ccc2Br)c1"
6.00 to 9.00

Give recorded pIC50. "O=C(Nc1cccc(NC(=O)C2CCCC2)c1)c1ccccc1Br"
6.00 to 9.00

Give recorded pIC50. "CCCNC(=O)c1cccc(NC(=O)c2ccccc2Cl)c1"
5.30 to 6.00

Give recorded pIC50. "CCCC(=O)Nc1ccc(Cl)c(NC(=O)c2ccccc2C)c1"
< 5.00

Give recorded pIC50. "CCCC(=O)Nc1cccc(NC(=O)c2ccccc2F)c1"
6.00 to 9.00

Give recorded pIC50. "CCCC(=O)Nc1cccc(NC(=O)c2ccccc2C(F)(F)F)c1"
5.30 to 6.00

Give recorded pIC50. CC(C)CC(=O)Nc1cccc(NC(=O)c2ccccc2Br)c1 [drawing 174]
6.00 to 9.00

Give recorded pIC50. "CCC(=O)Nc1cc(NC(=O)c2ccccc2C)ccc1C"
< 5.00

Give recorded pIC50. "CCCC(=O)Nc1cccc(NC(=O)c2ccccc2C)c1"
6.00 to 9.00

Give recorded pIC50. "CCCC(=O)Nc1cccc(NC(=O)c2ccccc2CC)c1"
6.00 to 9.00

Give recorded pIC50. "CCCCNc1cccc(NC(=O)c2ccccc2Br)c1"
6.00 to 9.00

Give recorded pIC50. "CCCC(=O)Nc1cccc(NCc2ccccc2Br)c1"
< 5.00

Give recorded pIC50. "CCCC(=O)Nc1cccc(NC(=O)c2cccnc2)c1"
< 5.00

###

ASSAY SYSTEM: Par1 (thrombin) receptor (Homo sapiens, UniProt P25116)
Construct: endogenous in cells; host or cells: platelets (platelet-rich plasma; washed platelets from individual donors)
EXPERIMENT DESCRIPTION: SFLLRN-mediated granule secretion, platelet-rich plasma, luciferin-luciferase ATP readout (primary assay)
Type: cell-based
CONDITION CONTEXT: Table D; read-out: Activity (measured IC50 category)
Exercise: state measured IC50 for each of the compounds provided.

Give recorded IC50. "CC(=O)Nc1cccc(NC(=O)c2ccccc2Cl)c1"
> 10 µM

Give recorded IC50. CCCC(=O)Nc1cccc(NC(=O)c2ccccc2Br)c1 [drawing 135]
0.001 to 1 µM

Give recorded IC50. "CCOC(=O)Nc1cccc(NC(=O)c2ccccc2Br)c1"
1 to 5 µM

Give recorded IC50. "CCCC(=O)Nc1cccc(NC(=O)c2c(C)cccc2C)c1"
1 to 5 µM

Give recorded IC50. "CCCC(=O)Nc1cccc(NC(=O)c2ccccc2C(=O)N(C)C)c1"
> 10 µM

Give recorded IC50. "CCCC(=O)Nc1cccc(NC(=O)c2ccccc2-c2ccccc2)c1"
> 10 µM

Give recorded IC50. "CCCC(=O)Nc1cccc(NC(=O)c2ccccc2S(C)(=O)=O)c1"
> 10 µM

Give recorded IC50. "O=C(Nc1ccnc(NC(=O)c2ccccc2Br)c1)c1ccccc1"
> 10 µM

Give recorded IC50. "CCCC(=O)Nc1cccc(NC(=O)c2ccc(C(F)(F)F)cc2)c1"
> 10 µM

Give recorded IC50. "CCCC(=O)Nc1cccc(NC(=O)c2ccco2)c1"
> 10 µM

Give recorded IC50. "CCCC(=O)N(C)c1cccc(NC(=O)c2ccccc2Br)c1"
> 10 µM

Give recorded IC50. "CCCC(=O)Nc1cccc(NC(=O)c2ccc(S(C)(=O)=O)cc2)c1"
> 10 µM

Give recorded IC50. "CCC(=O)Nc1cccc(NC(=O)c2ccccc2Br)c1"
1 to 5 µM

Give recorded IC50. "CCCC(=O)Nc1cccc(NC(=O)c2ccccc2OC(F)(F)F)c1"
0.001 to 1 µM

Give recorded IC50. "CCCC(=O)Nc1ccc(NC(=O)c2ccccc2Br)cc1"
> 10 µM

Give recorded IC50. "CCCC(=O)Nc1cccc(NC(=O)c2cc(F)ccc2Br)c1"
0.001 to 1 µM

Give recorded IC50. "CCCC(=O)Nc1cccc(N(C)C(=O)c2ccccc2Br)c1"
> 10 µM

Give recorded IC50. "CCCC(=O)Nc1cccc(NC(=O)c2ccc(F)cc2Br)c1"
0.001 to 1 µM

Give recorded IC50. "CCCC(=O)Nc1ccc(Cl)c(NC(=O)c2ccccc2Br)c1"
> 10 µM

Give recorded IC50. "CCCC(=O)Nc1cccc(NC(=O)c2cnc3ccccc3c2)c1"
> 10 µM

Give recorded IC50. "CCCC(=O)Nc1cccc(NC(=O)c2cccc(S(C)(=O)=O)c2)c1"
> 10 µM

Give recorded IC50. "O=C(Nc1cc(NC(=O)C2CCCC2)ccn1)c1ccccc1Br"
> 10 µM

Give recorded IC50. "CCCC(=O)Nc1cccc(NC(=O)c2ccccc2Cl)c1"
1 to 5 µM

###

ASSAY SYSTEM: PAR1 (Homo sapiens, UniProt P25116)
Sequence (P25116 22-425): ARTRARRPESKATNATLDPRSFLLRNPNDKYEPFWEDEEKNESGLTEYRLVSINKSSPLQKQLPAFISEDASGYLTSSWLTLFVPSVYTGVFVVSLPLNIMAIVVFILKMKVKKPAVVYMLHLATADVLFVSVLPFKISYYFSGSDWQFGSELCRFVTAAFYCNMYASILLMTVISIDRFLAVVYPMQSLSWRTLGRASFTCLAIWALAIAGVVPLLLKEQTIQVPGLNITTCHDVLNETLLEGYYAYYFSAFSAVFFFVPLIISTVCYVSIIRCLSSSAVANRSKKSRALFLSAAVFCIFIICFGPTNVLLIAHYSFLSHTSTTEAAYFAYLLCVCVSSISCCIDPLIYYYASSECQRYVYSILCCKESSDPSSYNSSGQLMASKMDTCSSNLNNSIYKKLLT
EXPERIMENT DESCRIPTION: P-selectin surface expression on washed platelets stimulated with SFLLRN (flow cytometry)
Format: cell-based
Parameters: endogenous in cells; host or cells: platelets (platelet-rich plasma; washed platelets from individual donors)
CONDITION CONTEXT: FIG. 1A; read-out: IC50, activation mediated through PAR1 (P-selectin surface expression)
pIC50: −log10 of the molar value.
EXPERIMENTAL READOUT: pIC50

Give recorded pIC50. CCCC(=O)Nc1cccc(NC(=O)c2ccccc2Br)c1 [Compound 1]
~6.52
